System: formalin induced pain response
Experiment: Formalin induced pain or paw oedema in mice
Assay type: in vivo
Conditions: 0.1 mg/kg; NMRI female mice, 20 μl 1% formalin into left hind paw
Procedure: Values for in vivo inhibition of formalin induced pain or oedema for the compounds of the present invention were assessed in mice essentially by the method of Wheeler-Aceto and Cowan (Agents Action 1991, 34, 265-269). About 20 g NMRI female mice were injected 20 μl 1% formalin into the left hind paw. The animals were then placed on a heated (31° C.) table, and the pain response was scored. After 1 h they were killed and bled. […]
Result type: % Pain inhibition (inhibition of formalin induced pain response) (%)
Report only the number, with the unit % understood.

Cl.OC1(c2ccc(Cl)cc2)CCN(CCCN2c3ccccc3CCc3ccccc32)CC1 :: 13
Cl.NC(=O)C1CCCN(CCCN2c3ccccc3CCc3ccccc32)C1 (centres unmarked) :: 47
Cl.O=C(O)C1CN(CCCN2c3ccccc3CCc3ccccc32)CCO1 (centres unmarked) :: 34
Cl.O=C(O)C1CCCCN1CCCN1c2ccccc2CCc2ccccc21 (centres unmarked) :: 36

# evaluate next
Annotate the molecule Cl.O=C(O)C1Cc2ccccc2CN1CCCN1c2ccccc2CCc2ccccc21 (centres unmarked) with its measured % Pain inhibition (inhibition of formalin induced pain response).
29

====

Here, each record is paired with measured melting point data.

Annotate the molecule Cl.O=C(O)C1CCN(CCCN2c3ccccc3Oc3ccccc32)CC1 with its measured melting point.
196 to 198 °C

Annotate the molecule Cl.O=C(O)C1CCCCN1CCCN1c2ccccc2CCc2ccccc21 (stereo not drawn) (hydrate or solvate) with its measured melting point.
122 to 126 °C

Annotate the molecule Cc1ccc2c(c1)C(=CCCN1CCC(C(=O)O)CC1)c1ccccc1CC2.Cl with its measured melting point.
> 250 °C

Annotate the molecule Cl.O=C(O)CC1CCN(CCCN2c3ccccc3CCc3ccccc32)CC1 with its measured melting point.
185 to 188 °C

Annotate the molecule Cl.O=C(O)C1CCN(CCCN2c3ccccc3CCc3ccccc32)CC1 with its measured melting point.
195 to 197 °C

Annotate the molecule CN(C)c1ccc2c(c1)N(CCCN1CCC(C(=O)O)CC1)c1ccccc1CC2 (hydrate or solvate) with its measured melting point.
198 to 202 °C

Annotate the molecule Cc1ccc2c(c1)N(CCCN1CCC(C(=O)O)CC1)c1cc(C)ccc1CC2 (hydrate or solvate) with its measured melting point.
207 to 209 °C

Annotate the molecule Cl.O=C(O)C1CCN(CCC=C2c3ccccc3CCc3ccccc32)CC1 with its measured melting point.
224 to 226 °C

Annotate the molecule Cl.O=C(O)CC1CCCN(CCCN2c3ccccc3CCc3ccccc32)C1 (stereo not drawn) with its measured melting point.
233 to 235 °C

====

Here, each record is paired with measured melting point data.

Cl.O=C(O)C1CCN(CCCN2c3cc(Cl)ccc3CCc3ccc(Cl)cc32)CC1 :: 237 to 239 °C

Annotate the compound Cl.O=C(O)C1CN(CCCN2c3ccccc3CCc3ccccc32)CCO1 (centres unmarked) (hydrate or solvate) [Example 8] with its measured melting point.
196 to 199 °C

Annotate the compound Cl.O=C(O)C1Cc2ccccc2CN1CCCN1c2ccccc2CCc2ccccc21 (centres unmarked) (hydrate or solvate) [Example 9] with its measured melting point.
205 to 208 °C

Annotate the compound O=C([O-])C1CN(CCCN2c3ccccc3CCc3ccccc32)CCN1.[K+] (centres unmarked) (hydrate or solvate) with its measured melting point.
151 to 155 °C

Annotate the compound Cl.NC(=O)[C@@H]1CCCN(CCC=C2c3ccccc3CCc3ccccc32)C1 with its measured melting point.
> 250 °C

Annotate the compound CC1C(C(=O)O)CCCN1CCCN1c2ccccc2CCc2ccccc21.Cl (centres unmarked) (hydrate or solvate) with its measured melting point.
169 to 170 °C

Annotate the compound Cl.O=C(O)C1CCN(CCCN2c3ccc(Br)cc3CCc3cc(Br)ccc32)CC1 (hydrate or solvate) with its measured melting point.
165 to 166 °C

Annotate the compound Cl.OCC1CCCN(CCCN2c3ccccc3CCc3ccccc32)C1 (centres unmarked) with its measured melting point.
145 to 147 °C
